Molecular target: Myeloperoxidase (Homo sapiens, UniProt P05164)
Sequence (P05164 165-273 limits assumed): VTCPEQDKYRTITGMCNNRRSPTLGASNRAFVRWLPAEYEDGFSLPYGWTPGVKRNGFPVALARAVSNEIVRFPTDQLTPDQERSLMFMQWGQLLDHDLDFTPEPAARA
Sequence (P05164 279-745 limits assumed): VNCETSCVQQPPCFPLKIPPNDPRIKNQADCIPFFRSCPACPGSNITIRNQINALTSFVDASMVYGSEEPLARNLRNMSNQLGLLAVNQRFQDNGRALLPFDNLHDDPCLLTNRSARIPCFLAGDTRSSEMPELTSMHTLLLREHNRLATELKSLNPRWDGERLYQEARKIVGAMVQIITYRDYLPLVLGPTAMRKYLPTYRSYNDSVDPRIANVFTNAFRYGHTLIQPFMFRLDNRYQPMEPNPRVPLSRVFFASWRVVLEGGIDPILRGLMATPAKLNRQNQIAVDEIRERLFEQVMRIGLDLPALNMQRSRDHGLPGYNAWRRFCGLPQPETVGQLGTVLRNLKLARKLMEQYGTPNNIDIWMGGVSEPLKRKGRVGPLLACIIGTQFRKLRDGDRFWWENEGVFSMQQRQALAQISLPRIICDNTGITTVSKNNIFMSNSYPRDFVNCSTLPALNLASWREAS
Assay: Inhibition of recombinant human MPO incubated for 10 mins by amplex red dye based assay
quantity.measured: IC50 (nM)

Observe how each entry below is paired with its result.
Nc1nc(Cc2ccccc2)c2nn[nH]c2n1	428
Nc1cc(Cc2ccc3ccccc3c2)c2nn[nH]c2n1	188
Nc1cc(Cc2ccccc2F)c2nn[nH]c2n1	46
Nc1nc(CCc2ccccc2)c2nn[nH]c2n1	9840

[I] Nc1nc(OCc2ccccc2)c2[nH]nnc2n1
[II] COC(=O)c1cccc(Cc2cc(N)nc3[nH]nnc23)c1
IN: Hi there, can you help? I need to know whether I or II has lower measured IC50. Identify your selection by its label.
OUT: II

[1] Nc1cc(Cc2cccc(Cl)c2)c2nn[nH]c2n1
[2] Nc1cc(Cc2ccc(Cl)cc2)c2nn[nH]c2n1
[3] Nc1cc(Cc2cccc(-c3ccccc3)c2)c2nn[nH]c2n1
IN: Put these in order: smallest IC50 first, largest last. A complete answer lists every label in the requested sequence.
OUT: 1, 3, 2

---

Assay: Protein binding in mouse plasma assessed as free fraction
Type: ADME, cell-free
quantity.measured: fraction unbound
Provide a numeric answer; units are not to be included.

IN: So what does the record say about fraction unbound for Nc1cc(Cc2ccccc2)c2nn[nH]c2n1 ?
OUT: 0.36

---

Assay: Permeability of compound at pH 7.4 by PAMPA assay
Type: ADME
Conditions: read-out: permeability
quantity.measured: Papp (×10⁻⁶ cm/s)

[a] Nc1cc([C@H](CCCN2CCC(c3ccccc3)CC2)c2ccccc2)c2nn[nH]c2n1
[b] Nc1cc([C@H](CCN[C@@H]2CC[C@@H](c3ccccc3)OC2)c2ccccc2)c2nn[nH]c2n1
[c] Nc1cc([C@H](CCN[C@H]2CCc3ccccc32)c2ccccc2)c2nn[nH]c2n1
[d] Nc1cc(Cc2ccccc2)c2nn[nH]c2n1
IN: Order the entries by their reported Papp, beginning at the minimum. A complete answer lists every label in the requested sequence.
OUT: a, b, c, d
(a: 1.3 ×10⁻⁶ cm/s, b: 3.7 ×10⁻⁶ cm/s, c: 6.5 ×10⁻⁶ cm/s, d: 31.3 ×10⁻⁶ cm/s)

---

Biological target: Myeloperoxidase (Mus musculus)
Sequence (P11247 139-247 limits assumed): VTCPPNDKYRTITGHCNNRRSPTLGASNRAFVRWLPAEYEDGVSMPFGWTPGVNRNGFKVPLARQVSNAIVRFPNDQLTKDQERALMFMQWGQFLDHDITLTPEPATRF
Sequence (P11247 254-718 limits assumed): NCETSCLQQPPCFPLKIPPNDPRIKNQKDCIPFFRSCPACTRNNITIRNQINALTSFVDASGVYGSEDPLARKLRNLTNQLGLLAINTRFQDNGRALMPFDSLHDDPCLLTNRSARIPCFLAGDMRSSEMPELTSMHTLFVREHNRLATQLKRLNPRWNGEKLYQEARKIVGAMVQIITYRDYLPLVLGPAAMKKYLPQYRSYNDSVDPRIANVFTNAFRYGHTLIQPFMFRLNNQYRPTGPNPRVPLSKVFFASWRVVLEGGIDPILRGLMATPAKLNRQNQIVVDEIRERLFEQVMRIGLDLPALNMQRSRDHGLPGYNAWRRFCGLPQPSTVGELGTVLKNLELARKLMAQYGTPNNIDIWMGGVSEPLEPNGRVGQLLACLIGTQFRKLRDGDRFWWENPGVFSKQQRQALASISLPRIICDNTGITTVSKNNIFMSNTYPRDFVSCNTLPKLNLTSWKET
Assay: Inhibition of PMA-induced MPO in mouse Neutrophil incubated for 3 mins by luminometry
Assay type: tissue-based
pIC50: −log10 of the molar value.
quantity.measured: pIC50

[P] O=c1[nH]c(=S)n(C[C@H]2CCCO2)c2nc[nH]c12
[Q] Nc1cc(Cc2ccccc2)c2nn[nH]c2n1
IN: Hi there, can you help? I need to know whether P or Q has lower measured pIC50. Identify your selection by its label.
OUT: P
(P: 4.49, Q: 5.02)

---

Assay: AUCtot in CD-1 mouse at 3 mg/kg, po by LC/MS analysis
Type: ADME, organism-based
Design: time AUCmax, route oral, dose 3 mg/kg
Settings: in vivo
quantity.measured: AUC (µM·h)

[1] Nc1nc(OCc2ccccc2)c2[nH]nnc2n1
[2] Nc1cc(Cc2ccccc2)c2nn[nH]c2n1
IN: Endpoint returns the identifier whose AUC is numerically larger, either 1 or 2 . Identify your selection by its label.
OUT: 2

---

Assay: Permeability of compound at pH 5.5 by PAMPA assay
Type: ADME
Details: read-out: permeability
quantity.measured: Papp (×10⁻⁶ cm/s)

Nc1cc(Cc2ccccc2)c2nn[nH]c2n1	42.7
Nc1nc(OCc2ccccc2)c2[nH]nnc2n1	42

This collection of values is drawn from ChEMBL document CHEMBL4699540.
